Where do the numbers come from? From ChEMBL document CHEMBL5329164.

# MEASUREMENT PROTOCOL: Solubility in DMSO:Cremophor EL:1xPBS mixture at 10 mg/ml
# Type: physicochemical
PROPERTY NAME: solubility

Nc1ncnc2c1c(-c1ccc(Oc3ccccc3)cc1)nn2[C@@H]1CCCN(C(=O)c2cn(CCOCCOCCOCCCc3cccc4c3CN(C3CCC(=O)NC3=O)C4=O)nn2)C1 (some centres undefined) ... Insoluble
C=CC(=O)N1CCC[C@@H](n2nc(-c3ccc(Oc4ccccc4)cc3)c3c(N)ncnc32)C1 [IBRUTINIB] ... Soluble
Nc1ncnc2c1c(-c1ccc(Oc3ccccc3)cc1)nn2C1CCN(C2CN(C3CN(c4ccc5c(c4)C(=O)N(C4CCC(=O)NC4=O)C5=O)C3)C2)CC1 (centres undefined) ... Insoluble
Nc1ncnc2c1c(-c1ccc(Oc3ccccc3)cc1)nn2[C@@H]1CCCN(C(=O)c2ccc(CNc3ccc4c(c3)C(=O)N(C3CCC(=O)NC3=O)C4=O)cc2)C1 (some centres undefined) ... Soluble

###

# ASSAY SYSTEM: Protein cereblon/Tyrosine-protein kinase BTK (Homo sapiens) (UniProt Q06187+Q96SW2)
# Sequence (Q06187 2-659 limits assumed): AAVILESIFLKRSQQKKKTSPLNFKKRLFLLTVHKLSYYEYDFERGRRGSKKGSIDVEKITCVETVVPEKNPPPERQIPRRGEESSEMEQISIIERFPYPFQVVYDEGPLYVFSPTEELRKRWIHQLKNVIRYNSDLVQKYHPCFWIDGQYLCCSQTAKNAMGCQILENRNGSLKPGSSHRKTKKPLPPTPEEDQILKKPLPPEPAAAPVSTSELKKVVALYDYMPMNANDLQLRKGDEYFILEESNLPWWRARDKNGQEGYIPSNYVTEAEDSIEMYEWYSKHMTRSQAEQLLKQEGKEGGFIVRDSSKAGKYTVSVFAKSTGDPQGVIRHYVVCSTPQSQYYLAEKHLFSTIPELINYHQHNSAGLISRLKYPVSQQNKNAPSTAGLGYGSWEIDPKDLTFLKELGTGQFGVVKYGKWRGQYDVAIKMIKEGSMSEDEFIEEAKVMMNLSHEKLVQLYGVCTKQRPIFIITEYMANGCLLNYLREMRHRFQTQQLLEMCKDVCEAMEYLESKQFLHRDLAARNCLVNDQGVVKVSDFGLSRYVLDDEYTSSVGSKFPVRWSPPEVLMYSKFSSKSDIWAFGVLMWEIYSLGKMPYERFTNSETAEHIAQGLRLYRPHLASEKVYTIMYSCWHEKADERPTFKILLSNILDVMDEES
# Sequence (Q96SW2 whole entry partner): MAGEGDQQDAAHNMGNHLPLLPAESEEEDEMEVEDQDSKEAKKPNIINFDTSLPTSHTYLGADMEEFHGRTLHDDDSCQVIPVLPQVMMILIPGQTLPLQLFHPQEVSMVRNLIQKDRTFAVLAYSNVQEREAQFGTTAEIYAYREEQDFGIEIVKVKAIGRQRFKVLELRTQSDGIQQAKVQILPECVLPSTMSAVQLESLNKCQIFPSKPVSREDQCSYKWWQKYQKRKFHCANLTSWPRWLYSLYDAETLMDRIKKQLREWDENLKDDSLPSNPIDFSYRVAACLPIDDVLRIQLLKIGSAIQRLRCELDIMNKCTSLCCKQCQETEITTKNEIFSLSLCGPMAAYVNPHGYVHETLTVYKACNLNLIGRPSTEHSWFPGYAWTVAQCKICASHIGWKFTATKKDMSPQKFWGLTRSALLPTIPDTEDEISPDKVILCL
# MEASUREMENT PROTOCOL: PROTAC activity at CRBN/ BTK in human Ramos cells assessed as induction of BTK degradation at 300 nM incubated for 24 hrs by immunoblot analysis relative to control
# Format: cell-based
PROPERTY NAME: Activity
Respond with the figure and its unit, in that order.

Nc1ncnc2c1c(-c1ccc(Oc3ccccc3)cc1)nn2[C@@H]1CCCN(C(=O)N2CCN(c3ccc4c(c3)C(=O)N(C3CCC(=O)NC3=O)C4=O)CC2)C1 (some centres undefined) ... 79.7%
Nc1ncnc2c1c(-c1ccc(Oc3ccccc3)cc1)nn2[C@@H]1CCCN(C(=O)c2ccc(Nc3ccc4c(c3)CN(C3CCC(=O)NC3=O)C4=O)cc2)C1 (some centres undefined) ... 12%
Nc1ncnc2c1c(-c1ccc(Oc3ccccc3)cc1)nn2[C@@H]1CCCN(C(=O)c2ccc(Nc3ccc4c(c3)C(=O)N(C3CCC(=O)NC3=O)C4=O)cc2)C1 (some centres undefined) ... 20.1%

In the following, a different molecule is considered.
Recorded result, Nc1ncnc2c1c(-c1ccc(Oc3ccccc3)cc1)nn2[C@@H]1CCCN(C(=O)N2CC3(C2)CN(c2ccc4c(c2)C(=O)N(C2CCC(=O)NC2=O)C4=O)C3)C1 (some centres undefined) , Activity: 24.5%

###

# MEASUREMENT PROTOCOL: Stability in monkey liver microsomes assessed as half life at 1 uM preincubated for 10 mins followed by reaction initiation measured upto 60 mins in presence of NADPH
# Assay type: ADME, Macaca mulatta, Microsome
# MEASUREMENT CONDITIONS: rhesus monkey, time < 70 min
For each of the molecules below, state its half-life at 1 µM.
Give bare numbers, in min.

Field: example entries. Status: answers known.
Nc1ncnc2c1c(-c1ccc(Oc3ccccc3)cc1)nn2[C@@H]1CCCN(C(=O)Cc2ccc(Nc3ccc4c(c3)CN(C3CCC(=O)NC3=O)C4=O)cc2)C1 (stereo partly drawn) ... 10
Nc1ncnc2c1c(-c1ccc(Oc3ccccc3)cc1)nn2[C@@H]1CCCN(C(=O)c2ccc(CNc3ccc4c(c3)C(=O)N(C3CCC(=O)NC3=O)C4=O)cc2)C1 (stereo partly drawn) ... 307

In the following, a different molecule is considered.
Recorded result, Nc1ncnc2c1c(-c1ccc(Oc3ccccc3)cc1)nn2C1CCN(C(=O)Cc2ccc(Nc3ccc4c(c3)CN(C3CCC(=O)NC3=O)C4=O)cc2)CC1 (stereo not drawn) , half-life at 1 µM: 8.91

###

# MEASUREMENT PROTOCOL: Stability in dog liver microsomes assessed as half life at 1 uM preincubated for 10 mins followed by reaction initiation measured upto 60 mins in presence of NADPH
# Assay type: ADME, Canis lupus familiaris, Microsome
# MEASUREMENT CONDITIONS: time < 70 min
For each of the compounds below, state its half-life at 1 µM.
Numbers only, in min.

Field: example entries. Status: answers known.
Nc1ncnc2c1c(-c1ccc(Oc3ccccc3)cc1)nn2[C@@H]1CCCN(C(=O)c2ccc(CNc3ccc4c(c3)C(=O)N(C3CCC(=O)NC3=O)C4=O)cc2)C1 (stereo partly drawn) ... 254
Nc1ncnc2c1c(-c1ccc(Oc3ccccc3)cc1)nn2[C@@H]1CCCN(C(=O)Cc2ccc(Nc3ccc4c(c3)CN(C3CCC(=O)NC3=O)C4=O)cc2)C1 (stereo partly drawn) ... 23

In the following, a different compound is considered.
Recorded result, Nc1ncnc2c1c(-c1ccc(Oc3ccccc3)cc1)nn2C1CCN(C(=O)Cc2ccc(Nc3ccc4c(c3)CN(C3CCC(=O)NC3=O)C4=O)cc2)CC1 (stereo not drawn) , half-life at 1 µM: 28.5

###

For each of the molecules below, state its AUC(0-t) at 24 h.
# MEASUREMENT PROTOCOL: AUClast in BALB/c mouse at 5 mg/kg, po measured for 24 hrs by LCMS analysis
# Format: ADME, organism-based
# Parameters: dose 5 mg/kg, time 24 hrs, route po
# MEASUREMENT CONDITIONS: in vivo
Answers are plain numbers, in ng·h/mL.

Field: example entries. Status: answers known.
Nc1ncnc2c1c(-c1ccc(Oc3ccccc3)cc1)nn2[C@@H]1CCCN(C(=O)c2ccc(CNc3ccc4c(c3)C(=O)N(C3CCC(=O)NC3=O)C4=O)cc2)C1 (stereo partly drawn) ... 336
Nc1ncnc2c1c(-c1ccc(Oc3ccccc3)cc1)nn2C1CCN(C(=O)Cc2ccc(Nc3ccc4c(c3)CN(C3CCC(=O)NC3=O)C4=O)cc2)CC1 (stereo not drawn) ... 103

In the following, a different molecule is considered.
Recorded result, Nc1ncnc2c1c(-c1ccc(Oc3ccccc3)cc1)nn2[C@@H]1CCCN(C(=O)Cc2ccc(Nc3ccc4c(c3)CN(C3CCC(=O)NC3=O)C4=O)cc2)C1 (stereo partly drawn) , AUC(0-t) at 24 h: 357
